Some compounds, each annotated with its measured chromatographic logP.
Experiment: Measurement of LogP values by HPLC on reversed phase columns (EEC directive 79/831 Annex V.A8)
Format: physicochemical
Conditions: method [a]: LC-UV, acidic range, 0.1% formic acid in water and acetonitrile as eluent; Table 1
Form: value (number only, do not type unit).

Worked examples, 8 compounds total:
OC(Cc1cc(Cl)ncc1Cl)(Cn1cncc1Cl)C1(Cl)CC1 (centres unmarked) | 2.18
OC(Cc1ccccc1Cl)(Cn1cncc1C(F)(F)F)C1(Cl)CC1 (centres unmarked) | 3.63
N#Cc1cncn1CC(O)(Cc1ccc(F)cc1)C1(Cl)CCC1 (centres unmarked) | 2.98
Cc1ccccc1CC(O)(Cn1cncc1Cl)C1(Cl)CC1 (centres unmarked) | 2.33
OC(Cn1cncc1Cl)(C(F)c1ccccc1F)C1(Cl)CC1 (centres unmarked) | 2.01
CC(C)C(O)(Cc1ccccc1F)Cn1cncc1C#N (centres unmarked) | 2.4
C#Cc1cncn1CC(O)(Cc1ccccc1F)C1(Cl)CC1 (centres unmarked) | 1.89
CC1(C(O)(Cc2ccc(F)cc2F)Cn2cncc2C#N)CC1 (centres unmarked) | 2.65

Asked: Which value of chromatographic logP has been reported for OC(Cc1ccc(Cl)cc1F)(Cn1cncc1Cl)C1(Cl)CC1 (centres unmarked) in the records?
Given back: 2.48

Asked: chromatographic logP lookup needed for Cc1cccc(CC(O)(Cn2cncc2C#N)C2(Cl)CC2)c1F (centres unmarked) , thanks.
Given back: 2.99
